B1: tRNA (parent)
chain: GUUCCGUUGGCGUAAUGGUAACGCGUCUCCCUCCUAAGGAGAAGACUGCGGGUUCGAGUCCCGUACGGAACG

Variants of: B1
Assay: yeast fitness relative to wild type (ratio to wild type); higher = fitter; tRNA-Arg(CCU), competitive growth, 37 C, YPD
Variants at the floor of the assay were thinned out.
test.readout: yeast fitness

residue.change: C22A G50C A70G
test.readout: yeast fitness
result: ≤ 0.5
//
residue.change: C24G C31U C33G
test.readout: yeast fitness
result: ≤ 0.5
//
residue.change: A36G A37C A43G
test.readout: yeast fitness
result: 0.63
//
residue.change: C22A G25A
test.readout: yeast fitness
result: 0.992
//
residue.change: G50U G68C
test.readout: yeast fitness
result: 0.804
//
residue.change: C24U G52C
test.readout: yeast fitness
result: 0.702
//
residue.change: C11U U13C C29U A37C U54A C62U G68A
test.readout: yeast fitness
result: ≤ 0.5
//
residue.change: C5U C11G C49U C61A
test.readout: yeast fitness
result: ≤ 0.5
//
residue.change: A14U C31G G38A C66U
test.readout: yeast fitness
result: ≤ 0.5
//
residue.change: C5G G17C G25A A70G
test.readout: yeast fitness
result: ≤ 0.5
//
residue.change: U3A C24G C29A G50C A57C C66U
test.readout: yeast fitness
result: ≤ 0.5
//
residue.change: C33G A45G C55G G56C
test.readout: yeast fitness
result: ≤ 0.5
//
residue.change: U7C U28C G41A A42C G50C A70G
test.readout: yeast fitness
result: 0.572
